Data origin, for the record: patent US20240116985A1

Reported pIC50 by item:
- System Tested: full-length beta-Catenin (Uniprot ID P35222) (Homo sapiens (Human)) (UniProt P35222)
- Sequence (P35222 2-781 limits assumed): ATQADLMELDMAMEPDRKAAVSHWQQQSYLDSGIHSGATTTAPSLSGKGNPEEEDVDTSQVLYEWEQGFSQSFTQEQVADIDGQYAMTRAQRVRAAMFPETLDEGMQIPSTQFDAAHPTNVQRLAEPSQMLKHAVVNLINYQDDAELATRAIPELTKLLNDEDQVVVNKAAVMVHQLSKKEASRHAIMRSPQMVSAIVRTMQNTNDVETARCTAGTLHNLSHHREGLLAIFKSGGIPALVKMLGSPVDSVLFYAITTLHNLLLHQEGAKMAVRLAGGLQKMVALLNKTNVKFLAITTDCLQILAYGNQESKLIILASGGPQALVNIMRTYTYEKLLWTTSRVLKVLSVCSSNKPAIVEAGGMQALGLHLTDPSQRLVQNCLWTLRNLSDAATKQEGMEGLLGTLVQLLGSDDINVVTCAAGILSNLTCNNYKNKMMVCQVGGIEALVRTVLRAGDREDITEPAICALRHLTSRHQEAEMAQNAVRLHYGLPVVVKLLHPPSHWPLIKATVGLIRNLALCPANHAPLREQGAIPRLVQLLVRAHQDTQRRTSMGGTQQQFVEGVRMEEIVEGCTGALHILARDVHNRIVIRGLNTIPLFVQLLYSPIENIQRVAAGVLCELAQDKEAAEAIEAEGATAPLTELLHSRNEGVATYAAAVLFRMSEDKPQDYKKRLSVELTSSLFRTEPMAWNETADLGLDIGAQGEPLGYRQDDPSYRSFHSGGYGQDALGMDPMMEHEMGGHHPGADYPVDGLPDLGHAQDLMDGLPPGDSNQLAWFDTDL
- Experiment Notes: fluorescence polarization competition; 10 nM full-length beta-catenin with 10 nM 5FAM-labeled TCF4 residues 10-53 probe (competitor displaced)
Starred links: 1 amine or outer side, 2 acyl side, 3 side chain; linkers in the order of their positions; H or OH if unused. Positions of bridges follow the written chain, without caps; N, C: chain ends. Non-standard residues stand in square brackets, D forms with d. Primed or numbered codes have the meaning given here. PyrS2″ = (S)-3-amino-1-((pent-4-en-1-yloxy)carbonyl)pyrrolidine-3-carboxylic acid (stapling residue), C=CCCCOC(=O)N1CC[C@@](N[*:1])(C(=O)[*:2])C1; B5(4) = 2,2-bis(4-pentenyl)glycine = 2-amino-2-(pent-4-en-1-yl)hept-6-enoic acid (stitching residue), C=CCCCC(CCCC=C)(N[*:1])C(=O)[*:2]; B5(12) = 2-amino-2-(pent-4-en-1-yl)hept-6-enoic acid (two olefin side chains), C=CCCCC(CCCC=C)(N[*:1])C(=O)[*:2]; B5(19) = 2-amino-2-(pent-4-en-1-yl)hept-6-enoic acid (bis(4-pentenyl)glycine), C=CCCCC(CCCC=C)(N[*:1])C(=O)[*:2]; Phe(3-CONH2) = NC(=O)c1cccc(C[C@H](N)C(=O)O)c1; Phe(3-COOH) = N[C@@H](Cc1cccc(C(=O)O)c1)C(=O)O; Phe(3-Cl) = N[C@@H](Cc1cccc(Cl)c1)C(=O)O; Phe(3-OMe) = COc1cccc(C[C@H](N)C(=O)O)c1; Bta = N[C@@H](Cc1csc2ccccc12)C(=O)O; Lys(iPr) = CC(C)NCCCC[C@H](N)C(=O)O; αAllylPro = C=CC[C@@]1(C(=O)O)CCCN1; tBuAla = CC(C)(C)C[C@H](N)C(=O)O; 3Pal = N[C@@H](Cc1cccnc1)C(=O)O; 3Thi = N[C@@H](Cc1ccsc1)C(=O)O; Cha = N[C@@H](CC1CCCCC1)C(=O)O; PyrS2(4) = not defined here; hSer = N[C@@H](CCO)C(=O)O; Nle = CCCC[C@H](N)C(=O)O; Aib = CC(C)(N)C(=O)O
Here pIC50 is given on a logarithmic scale as minus log10 of the concentration in mol/L.

Binder: Ac-[αAllylPro]D[tBuAla][B5(4)]D[Phe(3-COOH)]QAFL[PyrS2(4)][3Thi][Bta]A-NH2 (staple 1-4, 4-11; not fully specified; printed as Ac-PL3-Asp-Npg-B5-Asp-3COOHF-Gln-Ala-Phe-Leu-PyrS2-3Thi-BztA-Ala-NH2; reading uncertain) [I-1918]
pIC50: 8.30
--
Binder: Ac-[αAllylPro]N[Cha][B5(19)]DQ[Lys(iPr)]AFN[PyrS2″][Phe(3-CONH2)][Bta][hSer]-NH2 (staple 1-4, 4-11) [I-1929]
pIC50: 7.13
--
Binder: Ac-[αAllylPro]N[Cha][B5(19)]DQ[Lys(iPr)]A[Phe(3-OMe)]N[PyrS2″]F[Bta][hSer]-NH2 (staple 1-4, 4-11) [I-1926]
pIC50: 6.38
--
Binder: Ac-[αAllylPro]N[Cha][B5(19)]DQ[Lys(iPr)]AFN[PyrS2″][Phe(3-Cl)][Bta][hSer]-NH2 (staple 1-4, 4-11) [I-1928]
pIC50: 6.05
--
Binder: Ac-[αAllylPro]D[tBuAla][B5(12)]D[Phe(3-COOH)][Aib]AFL[PyrS2(4)][3Thi][Bta]F-NH2 (staple 1-4, 4-11; not fully specified; printed as Ac-PL3-Asp-Npg-B5-Asp-3COOHF-Aib-Ala-Phe-Leu-PyrS2-3Thi-BztA-Phe-NH2; reading uncertain) [I-1914]
pIC50: 7.28

For the binder Ac-[αAllylPro]D[tBuAla][B5(12)]D[Phe(3-COOH)][Nle]AFL[PyrS2(4)][3Thi][Bta]F-NH2 (staple 1-4, 4-11; not fully specified; printed as Ac-PL3-Asp-Npg-B5-Asp-3COOHF-nLeu-Ala-Phe-Leu-PyrS2-3Thi-BztA-Phe-NH2; reading uncertain) [I-1913] , what pIC50 is on record? 6.92

For the binder Ac-[αAllylPro]N[Cha][B5(19)]DQ[Lys(iPr)]AFN[PyrS2″][Phe(3-OMe)][Bta][hSer]-NH2 (staple 1-4, 4-11) [I-1930] , what pIC50 is on record? 5.81

For the binder Ac-[αAllylPro]D[tBuAla][B5(4)]D[Phe(3-COOH)]HAFL[PyrS2(4)][3Thi][Bta]A-NH2 (staple 1-4, 4-11; not fully specified; printed as Ac-PL3-Asp-Npg-B5-Asp-3COOHF-His-Ala-Phe-Leu-PyrS2-3Thi-BztA-Ala-NH2; reading uncertain) [I-1916] , what pIC50 is on record? 8.10

For the binder Ac-[αAllylPro]N[Cha][B5(19)]DQ[Lys(iPr)]AFN[PyrS2″][3Pal][Bta][hSer]-NH2 (staple 1-4, 4-11) [I-1927] , what pIC50 is on record? 5.29

For the binder Ac-[αAllylPro]N[Cha][B5(19)]DQ[Lys(iPr)]A[Phe(3-CONH2)]N[PyrS2″]F[Bta][hSer]-NH2 (staple 1-4, 4-11) [I-1925] , what pIC50 is on record? 6.32

For the binder Ac-[αAllylPro]N[Cha][B5(19)]D[hSer][Lys(iPr)]AFN[PyrS2″]F[Bta][hSer]-NH2 (staple 1-4, 4-11) [I-1933] , what pIC50 is on record? 6.81

For the binder Ac-[αAllylPro]N[Cha][B5(19)]DQ[Lys(iPr)]SFN[PyrS2″]F[Bta][hSer]-NH2 (staple 1-4, 4-11) [I-1931] , what pIC50 is on record? 5.81

For the binder Ac-[αAllylPro]N[Cha][B5(12)]DQ[Lys(iPr)]AF[hSer][PyrS2(4)]F[Bta][hSer]-NH2 (staple 1-4, 4-11; not fully specified; printed as Ac-PL3-Asn-Cha-B5-Asp-Gln-iPrLys-Ala-Phe-Hse-PyrS2-Phe-BztA-Hse-NH2; reading uncertain) [I-1922] , what pIC50 is on record? 6.34

For the binder Ac-[αAllylPro]N[Cha][B5(12)]DQ[Lys(iPr)]A[Phe(3-Cl)]N[PyrS2(4)]F[Bta][hSer]-NH2 (staple 1-4, 4-11; not fully specified; printed as Ac-PL3-Asn-Cha-B5-Asp-Gln-iPrLys-Ala-3C1F-Asn-PyrS2-Phe-BztA-Hse-NH2; reading uncertain) [I-1924] , what pIC50 is on record? 5.79

For the binder Ac-[αAllylPro]N[Cha][B5(12)]DQ[Lys(iPr)]A[3Pal]N[PyrS2(4)]F[Bta][hSer]-NH2 (staple 1-4, 4-11; not fully specified; printed as Ac-PL3-Asn-Cha-B5-Asp-Gln-iPrLys-Ala-3PyrA-Asn-PyrS2-Phe-BztA-Hse-NH2; reading uncertain) [I-1923] , what pIC50 is on record? 5.00
